Cited source for all entries: PubChem BioAssay (NCI)

- Tested on: OVCAR-8 ovarian
- Test: NCI tumour cell line growth inhibition, 48 h; in the data active means GI50 below about 0.43 µM; inactive means the rest
Hi there, use one of these labels in your reply, thanks! Yes for active, No for inactive

Look over these answered cases.
Molecule	Class name
O=C(/C(=C\c1ccc([N+](=O)[O-])cc1)S(=O)Cc1ccc(F)cc1)c1ccc(F)cc1 (centres undefined)	No
O=C1Nc2c(C(F)(F)F)cccc2[C@@]1(c1ccc(O)cc1)c1ccc(OC(F)(F)F)cc1	Yes
C[C@H](Nc1ncnc2nc[nH]c12)c1cc2ccc(F)cc2nc1-c1ccccn1	No
CC1COc2c(N3CCN(C)CC3)c(F)cc3c(=O)c(C(=O)O)cn1c23 (centres undefined)	No

# fetch the recorded call for COc1ccc2cc(-c3cc4c(oc3=O)-c3ccccc3OC4O)c(=O)oc2c1 (centres undefined) here
No

# fetch the recorded call for COC(=O)[C@]12CC[C@@H](C)[C@H](C)[C@@H]1C1=CC[C@@H]3[C@@]4(C)C(C=O)=C[C@@](C)(COC(C)=O)C4=CC[C@@]3(C)[C@]1(C)CC2 here
No

# fetch the recorded call for CN(C)c1ccc(N=C2C=CC(=[N+](C)C)C=C2)cc1 here
No

# fetch the recorded call for CC(C)(C)C(=O)OCOP(=O)(OCOC(=O)C(C)(C)C)C1CC(O)N(O)C1=O (centres undefined) here
No

# fetch the recorded call for O=C(CN(/C=C/C(=O)C(F)(F)F)c1ccc(Cl)cc1)c1ccccc1 here
No

* * *

- Tested on: SW-620 colon
- Test: NCI tumour cell line growth inhibition, 48 h
Observable: TGI

Compound	Observable	Readout value
CCN(CC)CCOc1ccccc1/C=C/c1noc2ccccc12	TGI	23 µM
COc1ccc2cc(C(=O)O)ccc2c1OC	TGI	> 100 µM
CC(/C(=N\Nc1ccccc1)c1ccc(O)cc1)C1C(=O)Oc2ccccc21 (stereo not given)	TGI	> 100 µM
COC(CC1(/C=C/O[Si](C(C)C)(C(C)C)C(C)C)C(=O)N(C)c2ccccc21)OC (stereo not given)	TGI	> 100 µM

Turning now to a further record.
Recorded TGI of COc1ccc(C(=O)c2cc(OC)c(OC)c(OC)c2)cc1/C=C/C(=O)c1ccc(OC)c(OC)c1 , please.
> 100 µM

* * *

Form field: TGI (one value per entry).
- System: DU-145 prostate
- Test: NCI tumour cell line growth inhibition, 48 h
Kindly answer with a numeric value in µM, unit omitted.

Compound	TGI (µM)
COc1cc(OC)c(/C=C\c2cc(/C=C/c3c(OC)cc(OC)cc3OC)c3ccccc3[n+]2C)c(OC)c1	20.9

Checklist item: TGI tested on DU-145 prostate, entry CCC[C@H](NS(=O)c1ccc(C)cc1)C(C(=O)OCC)=C(c1ccccc1)c1ccccc1 (stereo not given in full) , value?
36.7

* * *

- System: ACHN renal
- Test: NCI tumour cell line growth inhibition, 48 h
Form field: TGI (one value per entry).

Guide cases for TGI, answers given:
Compound	TGI
CCCCCCCCN(CCCCCCCC)CCCCCCNc1cc(OC)cc2cccnc12	23.7 µM
Cc1[nH]nc(N)c1C(N)=O	> 100 µM
Cc1cc(S(=O)(=O)Nc2cc(N)[nH]n2)c(SCc2nc(N)nc(N(C)C)n2)cc1Cl	> 10 µM
CNCc1cc(OC)ccc1-c1ccc(OC)c(OC)c1OC	> 100 µM

Recorded TGI of Cc1cccc2c1N(C(=O)/C=C\C(=O)O)C(c1c(C)[nH]c3ccccc13)C2 (stereo unspecified) , please.
> 100 µM

Recorded TGI of CCCCCCCCOCC(O)COC(=O)CCCCCCC (stereo unspecified) , please.
> 100 µM

* * *

Form field: TGI (one value per entry).
- Tested on: SK-MEL-28 melanoma
- Test: NCI tumour cell line growth inhibition, 48 h

Guide cases for TGI, answers given:
Compound	TGI
O=c1[nH]nc(Cc2ccccc2)n1/N=C\c1ccccc1	> 100 µM
CCN(CC)CCOc1ccccc1/C=C/c1noc2ccccc12	21.1 µM
NC(=O)CCC(N=C(N)c1csc(C2OC(CO)C(O)C2O)n1)C(=O)O (stereo not drawn)	> 100 µM
CCCCCCCCOCC(O)COC(=O)CCCCCCC (stereo not drawn)	> 100 µM
c1cc2[nH]ncc2cc1-c1nc2ccc3[nH]ncc3c2c2c1CCCC2	5.88 µM

Recorded TGI of CN(C)CCN=C1Nc2ccccc2C(=S)N2CSCC12 (stereo not drawn) , please.
> 100 µM

* * *

Form field: TGI (one value per entry).
- Tested on: 786-0 renal
- Test: NCI tumour cell line growth inhibition, 48 h

Guide cases for TGI, answers given:
Compound	TGI
Cc1nc(N/N=C/c2ccccc2Cl)[nH]c(=O)c1CCO	> 100 µM
O=C(O)c1cc(/C=C/c2cc(O)ccc2O)ccc1O	> 10 µM
COc1cccc2c1OC(c1ccc(C#N)cc1)C([N+](=O)[O-])=C2 (stereo not given)	11.9 µM
COC(=O)[C@@H]1CN(C(C)=O)C(=O)N1C(=O)OCc1ccccc1	> 100 µM
c1ccc([P+](Cc2ccccc2C[P+](c2ccccc2)(c2ccccc2)c2ccccc2)(c2ccccc2)c2ccccc2)cc1	> 100 µM
CC1=NOC(=O)/C1=C/c1cccc2ccccc12	> 100 µM
C=C[C@@H]1C[C@]2(C(=O)OC)Cc3nc4ccccc4nc3CC(C(=O)OC)=C2O1	> 100 µM
Cc1ccc(C(SCC(N)C(=O)O)(c2ccc(C)cc2)c2ccc(C)cc2)cc1 (stereo not given)	30.1 µM

Recorded TGI of O=C1c2ccccc2C(=O)N1CCN(CCN1C(=O)c2ccccc2C1=O)Cn1cccn1 , please.
> 100 µM

Recorded TGI of CCN(CC)CCNC(=O)c1cc2cc(NC(=O)c3cc4cc(NC(=O)c5cc6cc(N)ccc6[nH]5)ccc4[nH]3)ccc2[nH]1 , please.
> 100 µM

* * *

- Test system: T-47D breast
- Test: NCI tumour cell line growth inhibition, 48 h
Observable: TGI

Compound	TGI
CN(NC(=O)c1cccs1)C1=NCCCCN1	> 100 µM
O=C1c2nsnc2C(=O)c2c(F)c(F)c(F)c(F)c21	2.37 µM
CN(C)P(=O)(Oc1ccc(CC(NC(=O)OCc2ccccc2)C(=O)OCc2ccccc2)cc1)N(C)C (stereo not drawn)	52.3 µM

Checklist item: TGI tested on T-47D breast, entry C[C@]12CC[C@H](O)C[C@H]1CC[C@@H]1[C@@H]2CC[C@]2(C)[C@@H](C3=CC(=O)OC3)[C@@H](O)C[C@]12O , value?
> 40.7 µM

Checklist item: TGI tested on T-47D breast, entry C[C@H](Nc1ncnc2nc[nH]c12)c1cc2ccc(F)cc2nc1-c1ccccn1 , value?
99.5 µM

Checklist item: TGI tested on T-47D breast, entry O=CNc1ncn[nH]1 , value?
> 100 µM

Checklist item: TGI tested on T-47D breast, entry O=[N+]([O-])c1ccc(Sc2ncnc3nc[nH]c23)c2nonc12 , value?
> 100 µM

Checklist item: TGI tested on T-47D breast, entry CCN(CC)CCNC(=O)c1cc2cc(NC(=O)c3cc4cc(NC(=O)c5cc6cc(N)ccc6[nH]5)ccc4[nH]3)ccc2[nH]1 , value?
> 100 µM

Checklist item: TGI tested on T-47D breast, entry CCN1C(=O)C(C)S/C1=N\NC(=O)CSc1nc2ccccc2c(=O)n1CC (stereo not drawn) , value?
> 100 µM

Checklist item: TGI tested on T-47D breast, entry COc1ccc(C(SCC(N)C(=O)O)(c2ccccc2)c2ccccc2)cc1 (stereo not drawn) , value?
> 100 µM

* * *

- System: SK-MEL-28 melanoma
- Test: NCI tumour cell line growth inhibition, 48 h; in the data active means GI50 below about 0.43 µM; inactive means the rest
Hi there, use one of these labels in your reply, thanks! true (1) (active), false (0) (inactive)

Look over these answered cases.
Compound	Class name
O=[N+]([O-])c1ccccc1N/N=C\c1c[nH]c2ccccc12	false (0)
CCCCCCCCCCCCCC1=NCCN1CCO	false (0)

# fetch the recorded call for COc1ccc2c(c1)[nH]c(=O)c1c3cc(OC)ccc3cn21 here
true (1)

# fetch the recorded call for O=C(/C(=C\c1ccc([N+](=O)[O-])cc1)S(=O)Cc1ccc(F)cc1)c1ccc(F)cc1 (stereo unspecified) here
false (0)

# fetch the recorded call for COc1ccc2cc(-c3cc4c(oc3=O)-c3ccccc3OC4O)c(=O)oc2c1 (stereo unspecified) here
false (0)

# fetch the recorded call for CCN1C(=O)N(CC)C2Nn3c(s/c(=C\c4ccccc4Br)c3=O)=NC21 (stereo unspecified) here
false (0)

* * *

- System: NCI/ADR-RES ovarian
- Test: NCI tumour cell line growth inhibition, 48 h
Observable: TGI (µM)
Kindly answer with a numeric value in µM, unit omitted.

Guide cases for TGI, answers given:
Molecule	Tested system	Units label	Readout value
Cc1oc2c(Cl)cc(O)c(Cl)c2c2cccc1-2	NCI/ADR-RES ovarian	µM	79.9
Clc1cccc(Cl)c1C1CSc2ccccc2N=C1c1ccccc1 (stereo not given)	NCI/ADR-RES ovarian	µM	32
Nc1nc2c(s1)CCc1c-2c(Br)n(Cc2ccccc2)c1Br	NCI/ADR-RES ovarian	µM	87.7
NC(=S)N/N=C1\NC(=O)/C(=C/c2ccc3c(c2)OCO3)S1	NCI/ADR-RES ovarian	µM	78.7
CNC(=O)OCc1c2ccncc2c(C)c2c1[nH]c1ccccc12	NCI/ADR-RES ovarian	µM	2.3
CC(=O)O[C@H]1/C(=C/c2ccncc2)C[C@H]2[C@@H]3CC=C4C[C@@H](N5CCCC5)CC[C@]4(C)[C@H]3CC[C@]12C	NCI/ADR-RES ovarian	µM	25.1
COc1cc(-c2nc3ccccc3s2)ccc1NC(=O)COc1ccc(Cl)cc1	NCI/ADR-RES ovarian	µM	27.6
O=C1C(=O)c2c(nc3ccc(Br)cn23)-c2ccccc21	NCI/ADR-RES ovarian	µM	3.87

Checklist item: TGI tested on NCI/ADR-RES ovarian, entry C/C(=C\CCc1ccoc1)CC/C=C(\C)CCCN1CCOCC1 , value?
27.5

Checklist item: TGI tested on NCI/ADR-RES ovarian, entry Clc1ccc2c(c1)N(CCCN1CCCC1)c1ccccc1S2 , value?
18.8

Checklist item: TGI tested on NCI/ADR-RES ovarian, entry C[C@]12CC[C@H](O)C[C@H]1CC[C@@H]1[C@@H]2CC[C@]2(C)[C@@H](C3=CC(=O)OC3)[C@@H](O)C[C@]12O , value?
3.9

Checklist item: TGI tested on NCI/ADR-RES ovarian, entry COc1ccc2cc(-c3cc4c(oc3=O)-c3ccccc3OC4O)c(=O)oc2c1 (stereo not given) , value?
31.7

Checklist item: TGI tested on NCI/ADR-RES ovarian, entry CCOC(=O)c1c(C)n2c(=O)cc(C)c3c(O)c(O)cc1c32 , value?
89.4

Checklist item: TGI tested on NCI/ADR-RES ovarian, entry C=CC(C1=CC(=O)C(OC)=CC1=O)c1ccccc1 (stereo not given) , value?
44.8
